Biological target: Short transient receptor potential channel 4 (Mus musculus) (UniProt Q9QUQ5)
Sequence (Q9QUQ5 whole entry, looked up): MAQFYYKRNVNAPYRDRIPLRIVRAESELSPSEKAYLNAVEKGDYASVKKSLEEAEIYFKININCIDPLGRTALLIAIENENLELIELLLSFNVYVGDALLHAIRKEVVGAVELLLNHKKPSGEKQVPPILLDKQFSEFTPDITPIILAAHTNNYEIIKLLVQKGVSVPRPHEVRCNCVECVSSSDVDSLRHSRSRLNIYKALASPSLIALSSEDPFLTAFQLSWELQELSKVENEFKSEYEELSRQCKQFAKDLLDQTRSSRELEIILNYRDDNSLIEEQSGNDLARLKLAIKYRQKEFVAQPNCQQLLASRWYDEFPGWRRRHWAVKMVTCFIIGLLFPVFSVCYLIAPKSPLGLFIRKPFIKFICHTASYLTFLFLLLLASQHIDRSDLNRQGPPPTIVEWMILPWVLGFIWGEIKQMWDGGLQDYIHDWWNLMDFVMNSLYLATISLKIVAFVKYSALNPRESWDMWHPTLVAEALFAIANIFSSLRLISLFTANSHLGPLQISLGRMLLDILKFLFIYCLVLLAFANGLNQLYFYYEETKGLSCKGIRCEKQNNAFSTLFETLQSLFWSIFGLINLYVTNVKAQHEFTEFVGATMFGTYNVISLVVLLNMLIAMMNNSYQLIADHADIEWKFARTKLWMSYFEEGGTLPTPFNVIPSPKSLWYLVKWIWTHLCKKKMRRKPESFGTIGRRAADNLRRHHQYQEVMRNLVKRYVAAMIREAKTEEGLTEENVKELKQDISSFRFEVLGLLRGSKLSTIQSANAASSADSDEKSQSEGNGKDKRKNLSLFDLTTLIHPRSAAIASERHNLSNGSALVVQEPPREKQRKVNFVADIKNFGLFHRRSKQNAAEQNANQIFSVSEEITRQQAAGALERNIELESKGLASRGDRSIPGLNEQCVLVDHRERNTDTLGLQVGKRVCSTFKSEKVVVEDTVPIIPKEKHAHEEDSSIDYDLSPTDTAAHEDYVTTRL
Test: blockers of DAMGO-evoked TRPC4 calcium flux – cell-based, Fluo4, HEK293 TRPC4beta/mu-opioid, confirmation (AID 2636)
Details: at 10 µM
Activity calls are given as the source filed them.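 How the source made its calls: active means calcium signal cut by more than 3 SD below the full-agonist control yet still positive, in both repeats and the earlier primary screen; inactive means the rest.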
Possible outcomes: active, inactive

In [3]: df
Out[3]:
                                    compound  qualitative_label
 0                   Cc1cc(Br)ccc1OCCN1CCCC1           inactive
 1  O=C(c1ccc(Cl)c(Cl)c1)N(Cc1ccco1)c1ccc(O)cc1             active
 2  Cc1ccc(Oc2ccccc2NC(=O)CSCC(=O)Nc2cc(C)on2)cc1             active
 3  CCOC(=O)C1(Cc2ccccc2)CCN(Cc2ccc(C)s2)CC1             active
 4  CCCn1c(=O)c2sccc2n2c(CCCC(=O)NC3CCN(Cc4ccccc4)CC3)nnc12           inactive
 5     COc1ccc(OCCN(C)Cc2c(O)ccc3ccccc23)cc1           inactive
 6         CC(C)(c1ccccc1)c1ccc(OCCCNCCO)cc1             active
 7  CC1CCN(C(C)C(=O)Nc2ccccc2-c2ccccc2)CC1 (stereo unspecified)             active
 8                   C=CCOc1ccc(Br)cc1/C=N/O           inactive
 9  O=[N+]([O-])c1ccc(N2CCN(CCOc3nonc3-c3ccccc3)CC2)c(Cl)c1           inactive
10  CCOc1ccc2nc(N3CCCC(C(=O)NCC4CCCO4)C3)sc2c1 (stereo unspecified)           inactive
